protocol.text: Liver microsomal stability, rat
measurement.parameters: rat liver microsomes, 30 min, 1 μM compound, 0.5 mg/ml protein
Readings of Rem @ RLM × 30 min for the listed compounds
Numbers only here, please. The scale is %.

Sample records with Rem @ RLM × 30 min:
structure=CN(C)c1ccc(C(=O)c2c[nH]c3ccc(Cl)cc23)cc1 measured_property="Rem @ RLM × 30 min" result_number=45.2
structure=COc1ccc(C(=O)c2c[nH]c3ccc(Cl)cc23)cc1 measured_property="Rem @ RLM × 30 min" result_number=58.1
structure=O=C(c1cccc(Cl)c1Cl)c1c[nH]c2ccc(Cl)cc12 measured_property="Rem @ RLM × 30 min" result_number=33.5
structure=O=S(=O)(c1ccc(C(F)(F)F)cc1)n1c(-c2cccc3ccccc23)nc2ccc(Cl)cc21 measured_property="Rem @ RLM × 30 min" result_number=31.8
structure=O=C(c1ccc(F)c(F)c1)n1c(-c2cccc3ccccc23)cc2cc(Cl)ccc21 measured_property="Rem @ RLM × 30 min" result_number=46.3

Tell me the measured Rem @ RLM × 30 min of O=S(=O)(c1ccc2ccccc2c1)n1c(-c2cccc3ccccc23)nc2cc(Cl)ccc21 , please.
57.1

How about O=C(c1ccc(Cl)cc1Cl)c1c[nH]c2ccc(Cl)cc12 ?
37.4

Continue with O=S(=O)(c1ccc(C(F)(F)F)cc1)n1c(-c2cccc3ccccc23)nc2cc(Cl)ccc21
43.1

Let us now turn to O=C(c1ccccc1)c1c[nH]c2ccc(Cl)cc12
64.9

And Clc1ccc2[nH]c(-c3cccc4ccccc34)cc2c1 ?
51.7

Sourced from patent US12473262B2
